Study the reported pKi values for PKA (Homo sapiens, UniProt P17612) given below; they originate from different publications.
pKi: −log10 of the molar value.
QUANTITY NAME: pKi

1. N#CCC(=O)Nc1nc(-c2c[nH]c3ncccc23)cs1; > 6.30
2. C#Cc1cccc(C(=O)Nc2n[nH]c3ccc(NC(=O)C(CCN)c4ccc(Cl)c(Cl)c4)cc23)c1 (stereo not drawn); > 6.00
3. Cc1n[nH]c2ccc(NC(=O)[C@H](CCN)c3ccccc3)cc12; > 6.00
4. O=C(Cc1cccc(NS(=O)(=O)CCCN2CCOCC2)c1)Nc1nc(-c2c[nH]c3ncccc23)cs1; > 6.30
5. O=C(CCNC(=O)OCc1ccccc1)Nc1nc(-c2c[nH]c3ncc(Br)cc23)cs1; 5.30 to 6.30
6. COc1ccc(CC(=O)Nc2nc(-c3c[nH]c4ncccc34)cs2)c(Cl)c1; > 6.30
7. CC1CC=C(c2ncnc3[nH]ccc23)C1C (stereo not drawn); 5.30 to 6.30
8. O=C(Nc1nc(-c2c[nH]c3ncccc23)cs1)C(O)c1ccc(F)cc1F (stereo not drawn); > 6.30
9. CS(=O)(=O)Nc1cccc(CC(=O)Nc2nnc(-c3c[nH]c4ncccc34)s2)c1; > 6.30
10. O=C(Cc1cccc(S(=O)(=O)NCC2CCCO2)c1)Nc1nc(-c2c[nH]c3ncccc23)cs1 (stereo not drawn); > 6.30
11. NCCC(C(=O)Nc1ccc2[nH]ncc2c1)c1ccc(F)c(C(F)(F)F)c1 (stereo not drawn); > 6.00
12. CCNc1ccc(C(=O)Nc2n[nH]c3ccc(NC(=O)C(CCN)c4ccc(Cl)c(Cl)c4)cc23)cc1 (stereo not drawn); > 6.00
13. Cc1n[nH]c2ccc(NC(=O)C(CCN)c3cccc(Cl)c3F)cc12 (stereo not drawn); > 6.00
14. COc1cccc(CC(=O)Nc2csc(-c3c[nH]c4ncccc34)n2)c1; > 6.30
15. NCCC(C(=O)Nc1ccc2[nH]ncc2c1)c1cccc(N)c1 (stereo not drawn); > 6.00
16. O=C(Cc1ccccc1)Nc1nc(-c2c[nH]c3ncc(Br)cc23)cs1; > 6.30
17. CCN(CC)S(=O)(=O)c1cccc(CC(=O)Nc2nc(-c3c[nH]c4nccc(Cl)c34)cs2)c1; 5.30 to 6.30
18. NCCC(C(=O)Nc1ccc2[nH]nc(NC(=O)c3cc(F)cc(F)c3)c2c1)c1ccc(Cl)c(Cl)c1 (stereo not drawn); > 6.00
19. O=C(Cc1ccc2c(c1)OCO2)N(c1nc(-c2c[nH]c3ncccc23)cs1)C1CC1; > 6.30
20. O=C(Cc1cccc(O)c1)Nc1nc(-c2c[nH]c3ncccc23)cs1; > 6.30
21. Cc1sc(NC(=O)Cc2cccc(S(=O)(=O)N3CCOCC3)c2)nc1-c1c[nH]c2ncccc12; 5.30 to 6.30
22. O=C(Nc1ccc2[nH]ncc2c1)C(O)c1cc(F)cc(F)c1 (stereo not drawn); > 6.00
23. CN(c1cccc(CC(=O)Nc2nc(-c3c[nH]c4ncccc34)cs2)c1)S(C)(=O)=O; > 6.30
24. CN1CCN(CCCNc2nc(-c3c[nH]c4ncccc34)cs2)CC1; 5.30 to 6.30
25. CC(C)C[C@H](N)C(=O)Nc1nc(-c2c[nH]c3ncccc23)cs1; > 6.30
26. C1=C(c2ncnc3[nH]ccc23)CCSC1; 5.30 to 6.30
27. CS(=O)(=O)c1ccc(CC(=O)N(c2nc(-c3c[nH]c4ncccc34)cs2)C2CC2)cc1; 5.30 to 6.30
28. NCCC(C(=O)Nc1ccc2[nH]nc(Cl)c2c1)c1ccc(Cl)c(Cl)c1 (stereo not drawn); > 6.00
29. O=C(Cc1cccc(OCCCC2CCNCC2)c1)Nc1nc(-c2c[nH]c3nccc(Cl)c23)cs1; > 6.30
30. c1nc(C2CCCC2)c2cc[nH]c2n1; 5.30 to 6.30
31. O=C(Cc1ccccc1)Nc1nc(-c2c[nH]c3nccc(F)c23)cs1; > 6.30
32. O=C(Cc1ccc(OCCN2CCNCC2)cc1Cl)Nc1nc(-c2c[nH]c3ncccc23)cs1; 5.30 to 6.30
33. O=C(Cc1ccccc1F)Nc1nc(-c2c[nH]c3nccc(F)c23)cs1; > 6.30
34. CCCC(C(=O)Nc1nc(-c2c[nH]c3ncccc23)cs1)S(=O)(=O)CC (stereo not drawn); 5.30 to 6.30
35. O=C(Cc1ccccc1)Nc1csc(-c2c[nH]c3ncccc23)n1; > 6.30
36. O=C1CC[C@@H](C(=O)Nc2nc(-c3c[nH]c4ncccc34)cs2)O1; 5.30 to 6.30

###

pKi: −log10 of the molar value.
Study the reported pKi values for PKA (Homo sapiens, UniProt P17612) given below; they originate from different publications.
QUANTITY NAME: pKi

1. CC(C)(C)OC(=O)N1CCC(CCCOc2cccc(CC(=O)Nc3nc(-c4c[nH]c5ncccc45)cs3)c2)CC1; 5.30 to 6.30
2. COc1cccc(CC(=O)N(CCCN2CCN(C)CC2)c2nc(-c3c[nH]c4ncccc34)cs2)c1; > 6.30
3. CN(C)C(=O)Nc1nc(-c2c[nH]c3ncccc23)cs1; 5.30 to 6.30
4. COc1cccc(CC(=O)Nc2cc(-c3c[nH]c4ncccc34)cs2)c1; > 6.30
5. NCCC(C(=O)Nc1ccc2[nH]nc(NC(=O)c3cccc(OC(F)(F)F)c3)c2c1)c1ccc(Cl)c(Cl)c1 (stereo not drawn); > 6.00
6. NCCC(C(=O)Nc1ccc2[nH]nc(NC(=O)c3ccccn3)c2c1)c1ccc(Cl)c(Cl)c1 (stereo not drawn); > 6.00
7. CNCCC(C(=O)Nc1ccc2[nH]ncc2c1)c1ccc(Cl)c(Cl)c1 (stereo not drawn); > 6.00
8. NCCC(C(=O)Nc1ccc2[nH]ncc2c1)c1cccc(Cl)c1Cl (stereo not drawn); > 6.00
9. O=C(Cc1cccc(NS(=O)(=O)CCCN2CCCCC2)c1)Nc1nc(-c2c[nH]c3ncccc23)cs1; > 6.30
10. O=C(Cc1cccc(S(=O)(=O)N2CCOCC2)c1)Nc1nc(-c2c[nH]c3ncc(F)cc23)cs1; 5.30 to 6.30
11. O=C(Cc1cccc(S(=O)(=O)N2CCC(O)C2)c1)Nc1nc(-c2c[nH]c3ncccc23)cs1 (stereo not drawn); > 6.30
12. Cc1n[nH]c2ccc(NC(=O)C(CN)c3ccc(Cl)s3)cc12 (stereo not drawn); > 6.00
13. O=C(Cc1cccc(C(F)(F)F)c1)Nc1ccc2[nH]ncc2c1; > 6.00
14. NCCC(C(=O)Nc1ccc2[nH]nc(NC(=O)c3cccc(C(F)(F)F)c3)c2c1)c1ccc(Cl)c(Cl)c1 (stereo not drawn); > 6.00
15. NCC[C@H](C(=O)Nc1ccc2[nH]nc(-c3ccccc3)c2c1)c1ccccc1; 5.30 to 6.00
16. NCCC(C(=O)Nc1ccc2[nH]nc(NC(=O)c3cccc([N+](=O)[O-])c3)c2c1)c1ccc(Cl)c(Cl)c1 (stereo not drawn); > 6.00
17. CCN(CC)S(=O)(=O)c1cccc(CC(=O)Nc2nc(-c3c[nH]c4ncccc34)cs2)c1; 5.30 to 6.30
18. CS(=O)(=O)N[C@H](COCc1ccccc1)C(=O)Nc1nc(-c2c[nH]c3ncccc23)cs1; > 6.30
19. N[C@@H](C(=O)Nc1nc(-c2c[nH]c3ncccc23)cs1)c1ccccc1; > 6.30
20. COc1c(C(CCN)C(=O)Nc2ccc3[nH]nc(C)c3c2)ccc(Cl)c1Cl (stereo not drawn); > 6.00
21. O=C(Cc1cccc(S(=O)(=O)N2CCOCC2)c1)Nc1cc(-c2c[nH]c3ncccc23)cs1; > 6.30
22. O=C(Cc1ccccc1)Nc1nc(-c2c[nH]c3ncccc23)cs1; > 6.30
23. C(=C\c1ncnc2[nH]ccc12)/c1ccccc1; 5.30 to 6.30
24. CN1CCCN(S(=O)(=O)c2cccc(CC(=O)Nc3nc(-c4c[nH]c5ncccc45)cs3)c2)CC1; > 6.30
25. COc1ccc(CC(=O)N(c2nc(-c3c[nH]c4ncccc34)cs2)C2CC2)c(Cl)c1; > 6.30
26. CN(CC(=O)Nc1nc(-c2c[nH]c3ncccc23)cs1)S(C)(=O)=O; > 6.30
27. COc1cccc(C2CCCN(c3nc(-c4c[nH]c5ncccc45)cs3)C2=O)c1 (stereo not drawn); > 6.30
28. CS(=O)(=O)Nc1cccc(CC(=O)Nc2nc(-c3c[nH]c4ncc(O)cc34)cs2)c1; 5.30 to 6.30
29. CS(=O)(=O)Nc1cccc(CNC(=O)c2csc(-c3c[nH]c4ncccc34)c2)c1; > 6.30
30. CC(c1ccccc1)c1ncnc2[nH]ccc12 (stereo not drawn); 5.30 to 6.30
31. CCN(CC)S(=O)(=O)c1cccc(CC(=O)Nc2nc(-c3c[nH]c4nccc(F)c34)cs2)c1; 5.30 to 6.30
32. NCCC(C(=O)Nc1ccc2[nH]nc(NC(=O)c3cccc(F)c3)c2c1)c1ccc(Cl)c(Cl)c1 (stereo not drawn); > 6.00
33. NC(C(=O)Nc1ccc2[nH]ncc2c1)c1cccc(Cl)c1 (stereo not drawn); > 6.00
